Biological target: HLA-A*3301 (human)
Assay: inhibition of 125I probe peptide binding to purified HLA
Where no end group is shown, it is not given here. [ ]: non-standard residue; d: D form. Abu = CC[C@H](N)C(=O)O
Threshold 700 nM. IC50 below it: t. IC50 at it or above: f.

| Binder | Class label |
| --- | --- |
| TV[Abu]AGG[Abu]AR (synthetic analog peptide; also called TVBAGGBAR) [Her2/neu.218.B3B7] | t |

Input: Please let me know if [Abu]VN[Abu]SQFLK (synthetic analog peptide; also called BVNBSQFLK) [Her2/neu.528.B1B4K9] shows IC50 below 700 nM.
Output: f

Input: // same read-out, input: IVWLGLRSLR (synthetic analog peptide) [Her2/neu.450.V2]
Output: t

Input: Would you kindly repeat that for TVLWKDIFHR (synthetic analog peptide) [Her2/neu.166.V2R10] ?
Output: t

Input: Entry to check: IVWKDIFHR (synthetic analog peptide) [Her2/neu.167.V2R9]
Output: t

Input: Then this binder: QLRSLTEILK (synthetic peptide) [Her2/neu.141]
Output: f

Input: Repeat for the following binder: ILWKDIFHK (synthetic peptide) [Her2/neu.167]
Output: f
